Quick record: pIC50, PDE1C (Homo sapiens (Human)).
Field pIC50 (float): negative decimal logarithm of the concentration in molar.

Previously resolved entries follow.
Which pIC50 is reported for this molecule? CCOc1cnccc1-c1cc(NCc2cc[nH]n2)c2c(n1)c(C)nn2C(C)C [Example 13b]
7.25

Again, but for CCOc1cnccc1-c1cc(NCc2cccc(F)n2)c2c(n1)c(C)nn2C(C)C [Example 12b]
7.21

***
Which pIC50 is reported for this molecule? CCOc1ncccc1-c1cc(NCc2cccc3ncnn23)c2c(n1)c(C)nn2C(C)C [Example 6a]
7.19

Again, but for CCOc1nnccc1-c1cc(NCc2nnc(C)o2)c2c(n1)c(C)nn2C(C)C [Example 8b]
6.49

---

# measurement.target: PDE1B (Homo sapiens (Human))
# Sequence (Q01064 whole entry): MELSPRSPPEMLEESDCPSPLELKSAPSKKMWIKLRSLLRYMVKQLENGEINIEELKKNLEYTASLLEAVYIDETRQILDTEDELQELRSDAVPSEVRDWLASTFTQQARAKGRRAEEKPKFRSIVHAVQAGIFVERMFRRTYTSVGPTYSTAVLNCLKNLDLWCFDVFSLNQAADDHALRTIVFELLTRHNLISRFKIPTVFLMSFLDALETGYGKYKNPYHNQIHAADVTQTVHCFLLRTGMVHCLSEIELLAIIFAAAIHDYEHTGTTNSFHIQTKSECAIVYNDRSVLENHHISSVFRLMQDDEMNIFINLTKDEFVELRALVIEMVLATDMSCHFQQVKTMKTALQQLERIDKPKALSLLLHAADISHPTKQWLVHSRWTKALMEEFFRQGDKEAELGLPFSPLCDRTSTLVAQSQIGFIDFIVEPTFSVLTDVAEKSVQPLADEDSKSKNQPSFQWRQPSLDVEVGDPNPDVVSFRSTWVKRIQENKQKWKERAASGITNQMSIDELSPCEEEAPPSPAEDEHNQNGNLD
pIC50 values by entry
Field pIC50 (float): negative decimal logarithm of the concentration in molar.

Previously resolved entries follow.
# value lookup — system PDE1B (Homo sapiens (Human)), readout pIC50, item CCOc1nnccc1-c1cc(NCc2cccc3ocnc23)c2c(n1)c(C)nn2C(C)C [Example 13a]
8.77

Again, but for CCOc1nnccc1-c1cc(NCc2cccc(OC)n2)c2c(n1)c(C)nn2C(C)C [Example 24b]
8.85

Again, but for CCOc1cnccc1-c1cc(NCc2cnc(C)s2)c2c(n1)c(C)nn2C(C)C [Example 21b]
9.19

Again, but for CCCOc1nnccc1-c1cc(NCc2cnn(C)c2)c2c(n1)c(C)nn2C(C)C
9.46

Again, but for CCOc1cnccc1-c1cc(NCc2cccc(OC)n2)c2c(n1)c(C)nn2C(C)C [Example 25b]
8.80

***
# value lookup — system PDE1B (Homo sapiens (Human)), readout pIC50, item CCOc1ncccc1-c1cc(NCc2cccc3nc(C)nn23)c2c(n1)c(C)nn2C(C)C
9.03

Again, but for CCOc1nnccc1-c1cc(NCc2cnc(C)s2)c2c(n1)c(C)nn2C(C)C [Example 20b]
8.96

Again, but for CCOc1cnccc1-c1cc(NCc2cnn(C)c2)c2c(n1)c(C)nn2C(C)C [Example 28b]
8.68

Again, but for Cc1nc2cccc(-c3cc(NCc4cnn(C)c4)c4c(n3)c(C)nn4C(C)C)c2o1 [Example 36b]
8.62

Again, but for CCOc1ncccc1-c1cc(NCc2cccc3oc(C)nc23)c2c(n1)c(C)nn2C(C)C [Example 11a]
8.40

---

# measurement.target: PDE1C (Homo sapiens (Human))
pIC50 values by entry
Field pIC50 (float): negative decimal logarithm of the concentration in molar.

Which pIC50 is reported for this compound? CCOc1ncccc1-c1cc(NCc2cccc3nsnc23)c2c(n1)c(C)nn2C(C)C [Example 2a]
6.85

Again, but for COc1cnccc1-c1cc(NCc2cnn(C)c2)c2c(n1)c(C)nn2C(C)C [Example 29b]
7.36

Again, but for CCOc1nnccc1-c1cc(NCc2cccc(F)n2)c2c(n1)c(C)nn2C(C)C [Example 26b]
7.36

Again, but for CCOc1nnccc1-c1cc(NCc2ccccn2)c2c(n1)c(C)nn2C(C)C [Example 14b]
7.28

***
Which pIC50 is reported for this compound? CCOc1nnccc1-c1cc(NCc2cnn(C)c2)c2c(n1)c(C)nn2C(C)C [Example 3b]
7.57

Again, but for CCOc1nnccc1-c1cc(NCc2cc(C)[nH]n2)c2c(n1)c(C)nn2C(C)C [Example 22b]
7.82

Again, but for CCOc1cnccc1-c1cc(NCc2cnc(C)s2)c2c(n1)c(C)nn2C(C)C [Example 21b]
7.85

Again, but for CCOc1cnccc1-c1cc(NCc2ccn(C)n2)c2c(n1)c(C)nn2C(C)C [Example 27b]
7.38

---

Quick record: pIC50, PDE1C (Homo sapiens (Human), UniProt Q14123).
Field pIC50 (float): negative decimal logarithm of the concentration in molar.

# value lookup — system PDE1C (Homo sapiens (Human), UniProt Q14123), readout pIC50, item CCOc1ncccc1-c1cc(NCc2nccc3nccn23)c2c(n1)c(C)nn2C(C)C [Example 16a]
7.36

***
# value lookup — system PDE1C (Homo sapiens (Human), UniProt Q14123), readout pIC50, item CCOc1cnccc1-c1cc(NCc2ncn(C)n2)c2c(n1)c(C)nn2C(C)C [Example 19b]
7.66

Again, but for CCOc1nnccc1-c1cc(NCc2ccn(C)n2)c2c(n1)c(C)nn2C(C)C
7.66

Again, but for CCOc1nnccc1-c1cc(NCc2cccc(OC)n2)c2c(n1)c(C)nn2C(C)C [Example 24b]
7.15

---

Quick record: IC50, UniProtKB Q14123.
I only need the number, in µM, no unit after it.

# value lookup — system UniProtKB Q14123, readout IC50, item CCOc1cnccc1-c1cc(NCc2cc(C)[nH]n2)c2c(n1)c(C)nn2C(C)C [Example 23b]
0.012

***
# value lookup — system UniProtKB Q14123, readout IC50, item CCOc1nnccc1-c1cc(NCc2ncc(F)cn2)c2c(n1)c(C)nn2C(C)C [Example 10b]
0.067

Again, but for CCOc1ncccc1-c1cc(NCc2nccc3nncn23)c2c(n1)c(C)nn2C(C)C [Example 15a]
0.043

Again, but for CCCOc1nnccc1-c1cc(NCc2cnn(C)c2)c2c(n1)c(C)nn2C(C)C
0.018

---

# measurement.target: PDE1A (Homo sapiens (Human), UniProt P54750)
# Sequence (P54750 whole entry): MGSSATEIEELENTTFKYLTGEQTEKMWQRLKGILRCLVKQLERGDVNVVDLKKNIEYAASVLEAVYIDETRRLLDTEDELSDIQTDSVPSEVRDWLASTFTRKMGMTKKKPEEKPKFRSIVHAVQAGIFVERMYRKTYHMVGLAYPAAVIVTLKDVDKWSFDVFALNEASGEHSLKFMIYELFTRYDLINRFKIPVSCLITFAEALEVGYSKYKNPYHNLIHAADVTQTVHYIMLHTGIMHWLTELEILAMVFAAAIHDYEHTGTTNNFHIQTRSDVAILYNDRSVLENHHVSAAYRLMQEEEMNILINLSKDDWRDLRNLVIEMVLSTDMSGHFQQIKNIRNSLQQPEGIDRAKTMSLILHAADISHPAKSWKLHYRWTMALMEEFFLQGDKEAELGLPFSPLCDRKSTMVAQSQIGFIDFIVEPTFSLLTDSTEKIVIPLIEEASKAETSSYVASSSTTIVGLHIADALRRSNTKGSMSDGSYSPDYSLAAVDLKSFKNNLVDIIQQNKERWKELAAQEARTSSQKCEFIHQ
IC50 values by entry
I only need the number, in nM, no unit after it.

Previously resolved entries follow.
# value lookup — system PDE1A (Homo sapiens (Human), UniProt P54750), readout IC50, item CCOc1nnccc1-c1cc(NCc2cccc(F)n2)c2c(n1)c(C)nn2C(C)C [Example 26b]
6.5

Again, but for Cc1nn(C(C)C)c2c(NCc3cnn(C)c3)cc(-c3cccc4cc[nH]c34)nc12 [Example 38b]
590

Again, but for CCOc1nnccc1-c1cc(NCc2nccc(C)n2)c2c(n1)c(C)nn2C(C)C [Example 11b]
38

Again, but for CCOc1cnccc1-c1cc(NCc2cc(C)[nH]n2)c2c(n1)c(C)nn2C(C)C [Example 23b]
5.5

Again, but for CCOc1nnccc1-c1cc(NCc2cccc3oc(C)nc23)c2c(n1)c(C)nn2C(C)C [Example 14a]
9.3

Again, but for CCOc1ncccc1-c1cc(NCc2cccn3nccc23)c2c(n1)c(C)nn2C(C)C
53

***
# value lookup — system PDE1A (Homo sapiens (Human), UniProt P54750), readout IC50, item CCOc1nnccc1-c1cc(NCc2cccnc2OC)c2c(n1)c(C)nn2C(C)C
11

Again, but for CCOc1cnccc1-c1cc(NCc2nnc(C)o2)c2c(n1)c(C)nn2C(C)C [Example 34b]
49

Again, but for COc1nnccc1-c1cc(NCc2cnn(C)c2)c2c(n1)c(C)nn2C(C)C
45

---

log10(IC50) values by entry
# measurement.target: PDE1C (Homo sapiens (Human), UniProt Q14123)
# Sequence (Q14123 whole entry): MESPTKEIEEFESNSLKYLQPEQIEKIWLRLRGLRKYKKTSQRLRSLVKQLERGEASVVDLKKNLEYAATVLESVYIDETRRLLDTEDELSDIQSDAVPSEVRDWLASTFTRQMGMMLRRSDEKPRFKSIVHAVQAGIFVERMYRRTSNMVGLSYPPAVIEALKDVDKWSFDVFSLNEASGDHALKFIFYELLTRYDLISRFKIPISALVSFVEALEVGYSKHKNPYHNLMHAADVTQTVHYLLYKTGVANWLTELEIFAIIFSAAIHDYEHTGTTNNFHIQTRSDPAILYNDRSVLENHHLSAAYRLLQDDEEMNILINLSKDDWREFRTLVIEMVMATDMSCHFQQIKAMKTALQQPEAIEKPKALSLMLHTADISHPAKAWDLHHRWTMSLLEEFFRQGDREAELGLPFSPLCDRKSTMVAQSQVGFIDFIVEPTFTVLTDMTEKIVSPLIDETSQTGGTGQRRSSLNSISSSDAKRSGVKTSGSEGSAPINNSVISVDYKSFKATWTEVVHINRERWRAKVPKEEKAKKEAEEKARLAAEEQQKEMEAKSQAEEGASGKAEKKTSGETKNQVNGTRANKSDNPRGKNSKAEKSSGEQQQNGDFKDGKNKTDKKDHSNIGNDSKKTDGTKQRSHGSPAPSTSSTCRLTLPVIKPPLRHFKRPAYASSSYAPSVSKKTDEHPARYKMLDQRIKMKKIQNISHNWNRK
// units: nM (pre-log); metric: IC50; scale: log10

Previously resolved entries follow.
Which log10(IC50) is reported for this molecule? Cc1nn(C(C)C)c2c(NCc3cnn(C)c3)cc(-c3cccc4ncoc34)nc12 [Example 37b]
1.15

Again, but for Cc1nn(C(C)C)c2c(NCc3cnn(C)c3)cc(-c3cccc4cc[nH]c34)nc12 [Example 38b]
2.54

Again, but for CCOc1cnccc1-c1cc(NCc2cnn(C)c2)c2c(n1)c(C)nn2C(C)CC (single isomer, unassigned) [Example 32b]
2.26

***
Which log10(IC50) is reported for this molecule? CCOc1ncccc1-c1cc(NCc2ccc3oc(C)nc3c2)c2c(n1)c(C)nn2C(C)C [Example 12a]
1.49

Again, but for CCOc1nnccc1-c1cc(NCc2nccc(C)n2)c2c(n1)c(C)nn2C(C)C [Example 11b]
2.20

Again, but for CCOc1nnccc1-c1cc(NCc2ncccn2)c2c(n1)c(C)nn2C(C)C [Example 1b]
1.68

Again, but for Cc1nc2c(-c3cc(NCc4cnn(C)c4)c4c(n3)c(C)nn4C(C)C)cccc2o1 [Example 35b]
1.63

Again, but for CCOc1ncccc1-c1cc(NCc2cccn3cncc23)c2c(n1)c(C)nn2C(C)C [Example 8a]
0.96

Again, but for COc1nnccc1-c1cc(NCc2cnn(C)c2)c2c(n1)c(C)nn2C(C)C [Example 2b]
1.69

---

Quick record: log10(IC50), PDE1B (Homo sapiens (Human), UniProt Q01064).
// units: nM (pre-log); metric: IC50; scale: log10

Previously resolved entries follow.
Which log10(IC50) is reported for this compound? CCOc1ncccc1-c1cc(NCc2cccn3cncc23)c2c(n1)c(C)nn2C(C)C
-0.74

Again, but for CCOc1nnccc1-c1cc(NCc2ncccn2)c2c(n1)c(C)nn2C(C)C
0.11

Again, but for Cc1nn(C(C)C)c2c(NCc3cnn(C)c3)cc(-c3cccc4cn[nH]c34)nc12 [Example 39b]
1.38

Again, but for CCOc1cnccc1-c1cc(NCc2ccn(C)n2)c2c(n1)c(C)nn2C(C)C [Example 27b]
0.20

Again, but for CCOc1cnccc1-c1cc(NCc2cccnc2F)c2c(n1)c(C)nn2C(C)C [Example 17b]
0.38

Consider the record given below.
Which log10(IC50) is reported for this compound? CCCOc1cnccc1-c1cc(NCc2cnn(C)c2)c2c(n1)c(C)nn2C(C)C [Example 31b]
-0.42
